Target: SMARCA4-HiBiT (Homo sapiens)
Construct: SMARCA4-HiBiT knock-in Hela monoclonal cell (CS3023226); host or cells: HeLa monoclonal knock-in line (CRISPR HiBiT knock-in at the endogenous locus, heterozygous)
Sequence (P51532 whole entry): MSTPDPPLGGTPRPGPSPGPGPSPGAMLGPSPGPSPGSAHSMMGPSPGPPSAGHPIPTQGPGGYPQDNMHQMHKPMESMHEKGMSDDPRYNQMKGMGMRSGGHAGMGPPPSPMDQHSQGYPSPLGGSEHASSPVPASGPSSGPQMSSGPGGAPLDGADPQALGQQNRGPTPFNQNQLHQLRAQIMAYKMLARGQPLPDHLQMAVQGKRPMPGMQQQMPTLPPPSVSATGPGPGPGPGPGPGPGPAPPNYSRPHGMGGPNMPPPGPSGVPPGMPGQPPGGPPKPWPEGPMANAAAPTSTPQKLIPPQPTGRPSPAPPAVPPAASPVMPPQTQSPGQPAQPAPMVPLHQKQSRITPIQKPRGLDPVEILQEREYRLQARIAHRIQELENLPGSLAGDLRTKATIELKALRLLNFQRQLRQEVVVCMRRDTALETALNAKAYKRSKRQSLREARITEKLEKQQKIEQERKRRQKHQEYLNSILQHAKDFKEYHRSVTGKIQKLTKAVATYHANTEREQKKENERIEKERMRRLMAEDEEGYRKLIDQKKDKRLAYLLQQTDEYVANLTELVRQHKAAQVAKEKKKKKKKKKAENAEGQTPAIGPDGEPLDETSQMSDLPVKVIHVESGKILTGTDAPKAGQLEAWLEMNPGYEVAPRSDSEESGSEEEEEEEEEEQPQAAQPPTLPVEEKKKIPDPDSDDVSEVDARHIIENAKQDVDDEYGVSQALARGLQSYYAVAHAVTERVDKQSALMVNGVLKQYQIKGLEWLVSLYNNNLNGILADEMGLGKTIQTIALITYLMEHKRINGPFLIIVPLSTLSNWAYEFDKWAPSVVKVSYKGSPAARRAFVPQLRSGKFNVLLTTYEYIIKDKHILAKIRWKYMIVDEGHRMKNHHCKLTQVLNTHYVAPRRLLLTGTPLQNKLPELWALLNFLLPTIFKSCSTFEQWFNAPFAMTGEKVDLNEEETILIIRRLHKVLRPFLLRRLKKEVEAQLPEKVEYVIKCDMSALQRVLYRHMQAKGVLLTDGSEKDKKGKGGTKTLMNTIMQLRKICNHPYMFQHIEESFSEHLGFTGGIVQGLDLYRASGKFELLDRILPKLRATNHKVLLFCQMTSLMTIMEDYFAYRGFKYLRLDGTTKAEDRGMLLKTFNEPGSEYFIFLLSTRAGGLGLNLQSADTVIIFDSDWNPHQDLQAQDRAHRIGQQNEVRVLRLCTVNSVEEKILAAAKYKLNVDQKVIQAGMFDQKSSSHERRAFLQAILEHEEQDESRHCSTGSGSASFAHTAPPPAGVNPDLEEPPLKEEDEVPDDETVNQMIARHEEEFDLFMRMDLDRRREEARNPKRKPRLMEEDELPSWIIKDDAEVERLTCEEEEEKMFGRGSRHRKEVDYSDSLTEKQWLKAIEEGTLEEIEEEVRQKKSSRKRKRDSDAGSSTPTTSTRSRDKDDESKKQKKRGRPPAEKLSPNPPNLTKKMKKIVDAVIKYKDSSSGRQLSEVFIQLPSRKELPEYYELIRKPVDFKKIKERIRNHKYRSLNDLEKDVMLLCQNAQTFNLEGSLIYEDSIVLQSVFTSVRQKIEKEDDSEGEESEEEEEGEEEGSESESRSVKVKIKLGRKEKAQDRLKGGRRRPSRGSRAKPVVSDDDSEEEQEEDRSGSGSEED
Test: SMARCA4 HiBiT degradation assay in HeLa cells
Assay type: cell-based
Details: 18 hours incubation, read-out: HeLa-HiBit-SM4 DC50
Readings of DC50 for the listed molecules

molecule	test-target	recorded-result
O=C1CCC(N2C(=O)c3ccc(N4CCC(CCN5CCC(CN6CCN7c8cc(-c9ccccc9O)nnc8NC[C@H]7C6)CC5)CC4)cc3C2=O)C(=O)N1 (stereo partly shown)	SMARCA4-HiBiT (Homo sapiens)	< 10 nM
O=C1CCC(N2C(=O)c3ccc(N4CCC(F)(CN5C[C@@H]6[C@@H](CN7CCN8c9cc(-c%10ccccc%10O)nnc9NC[C@H]8C7)[C@@H]6C5)CC4)cc3C2=O)C(=O)N1 (stereo partly shown)	SMARCA4-HiBiT (Homo sapiens)	10 to 100 nM
COC1(CN2C[C@@H]3[C@@H](CN4CCN5c6cc(-c7ccccc7O)nnc6NC[C@H]5C4)[C@@H]3C2)CCN(c2ccc3c(c2)C(=O)N(C2CCC(=O)NC2=O)C3=O)CC1 (stereo partly shown)	SMARCA4-HiBiT (Homo sapiens)	< 10 nM
O=C1CCC(N2C(=O)c3ccc(N4CC[C@H](CN5C[C@@H]6[C@H](C5)[C@H]6CN5CCN6c7cc(-c8ccccc8O)nnc7NC[C@H]6C5)[C@H](F)C4)cc3C2=O)C(=O)N1 (stereo partly shown)	SMARCA4-HiBiT (Homo sapiens)	< 10 nM
CN1CCN(c2ccc3c(c2)C(=O)N(C2CCC(=O)NC2=O)C3=O)CC1CN1C[C@@H]2[C@H](C1)[C@H]2CN1CCN2c3cc(-c4ccccc4O)nnc3NC[C@H]2C1 (stereo partly shown)	SMARCA4-HiBiT (Homo sapiens)	10 to 100 nM
O=C1CCC(N2C(=O)c3cccc(N4CCC(CN5CCC(CN6CCN7c8cc(-c9ccccc9O)nnc8NC[C@H]7C6)CC5)CC4)c3C2=O)C(=O)N1 (stereo partly shown)	SMARCA4-HiBiT (Homo sapiens)	< 10 nM
O=C1CCC(N2C(=O)c3ccc(N4CC[C@H](CN5CCC(CN6CCN7c8cc(-c9ccccc9O)nnc8NC[C@H]7C6)CC5)[C@H](F)C4)cc3C2=O)C(=O)N1 (stereo partly shown)	SMARCA4-HiBiT (Homo sapiens)	< 10 nM
O=C1CCC(N2Cc3ccc(N4CC(CN5CCN(C(=O)N6CCN7c8cc(-c9ccccc9O)nnc8NC[C@H]7C6)CC5)C4)cc3C2=O)C(=O)N1 (stereo partly shown)	SMARCA4-HiBiT (Homo sapiens)	10 to 100 nM

Lab note: need DC50 with SMARCA4-HiBiT (Homo sapiens) for entry O=C1CCC(N2C(=O)c3ccc(N4CCC(CN5CCN6c7cc(-c8ccccc8O)nnc7NC[C@H]6C5)CC4)cc3C2=O)C(=O)N1 (stereo partly shown) , please look it up.
10 to 100 nM

// fetch SMARCA4-HiBiT (Homo sapiens) DC50 for O=C1CCC(N2C(=O)c3ccc(N4CCC5(CN6CCC(CN7CCN8c9cc(-c%10ccccc%10O)nnc9NC[C@H]8C7)CC6)CC5C4)cc3C2=O)C(=O)N1 (stereo partly shown)
< 10 nM

Recorded DC50 for O=C1CCC(N2C(=O)c3ccc(NCCN4C[C@@H]5[C@H](C4)[C@H]5CN4CCN5c6cc(-c7ccccc7O)nnc6NC[C@H]5C4)cc3C2=O)C(=O)N1 (stereo partly shown) with SMARCA4-HiBiT (Homo sapiens), please?
10 to 100 nM

Provide the documented DC50 with SMARCA4-HiBiT (Homo sapiens) as the system for C[C@H]1CN2c3cc(-c4ccccc4O)nnc3NC[C@H]2CN1C[C@H]1[C@@H]2CN(CC3CCN(c4ccc5c(c4)CN(C4CCC(=O)NC4=O)C5=O)CC3)C[C@@H]21 (stereo partly shown)
< 10 nM

DC50 of O=C1CCC(N2C(=O)c3ccc(C4CCN(C5CCN(CCN6CCN7c8cc(-c9ccccc9O)nnc8NC[C@H]7C6)C5)CC4)cc3C2=O)C(=O)N1 (stereo partly shown) on SMARCA4-HiBiT (Homo sapiens)?
< 10 nM

Form field: DC50 recorded for O=C1CCC(N2C(=O)c3ccc(N4CCC(CN5CCC(NC6CCN7c8cc(-c9ccccc9O)nnc8NCC7C6)CC5)CC4)cc3C2=O)C(=O)N1 (stereo not shown) with SMARCA4-HiBiT (Homo sapiens) (enter value)
10 to 100 nM

Return DC50 measured with SMARCA4-HiBiT (Homo sapiens) given this molecule: CCC1CN(CC2CCN(c3ccc4c(c3)C(=O)N(C3CCC(=O)NC3=O)C4)CC2)CCN1C(=O)N1CCN2c3cc(-c4ccccc4O)nnc3NC[C@H]2C1 (stereo partly shown) [Example 271]
< 10 nM

Recorded DC50 for O=C1CCC(N2C(=O)c3ccc(N4CC[C@@H](CN5C[C@@H]6[C@H](C5)[C@H]6CN5CCN6c7cc(-c8ccccc8O)nnc7NC[C@H]6C5)[C@H](F)C4)cc3C2=O)C(=O)N1 (stereo partly shown) [Example 201] with SMARCA4-HiBiT (Homo sapiens), please?
< 10 nM

For SMARCA4-HiBiT (Homo sapiens), provide DC50 of O=C1CCC(N2C(=O)c3ccc(N4CCN(CCN5CCO[C@H](CN6CCN7c8cc(-c9ccccc9O)nnc8NC[C@H]7C6)C5)CC4)cc3C2=O)C(=O)N1 (stereo partly shown) please.
< 10 nM

Give the reported DC50 for O=C1CCC(N2Cc3ccc(C4CCN(CCCN5CCC(CN6CCN7c8cc(-c9ccccc9O)nnc8NC[C@H]7C6)CC5)CC4)cc3C2=O)C(=O)N1 (stereo partly shown) (system: SMARCA4-HiBiT (Homo sapiens)).
10 to 100 nM

Value wanted: DC50 (SMARCA4-HiBiT (Homo sapiens)) of entry O=C1CCC(N2C(=O)c3ccc(N4CCC(CN5CCC(CN6CCN7c8cc(-c9ccccc9O)nnc8NC[C@H]7C6)CC5)CC4)cc3C2=O)C(=O)N1 (stereo partly shown)
< 10 nM

Short answer please: DC50, SMARCA4-HiBiT (Homo sapiens), entry O=C1CCC(N2Cc3ccc(N4CCC(CN5Cc6cnc(N7CCN8c9cc(-c%10ccccc%10O)nnc9NC[C@H]8C7)nc6C5)CC4)cc3C2=O)C(=O)N1 (stereo partly shown)
< 10 nM

Query for SMARCA4-HiBiT (Homo sapiens): what DC50 does the record show for O=C1CCC(N2Cc3ccc(N4CCOC(CN5CCC(C(=O)N6CCN7c8cc(-c9ccccc9O)nnc8NC[C@H]7C6)CC5)C4)cc3C2=O)C(=O)N1 (stereo partly shown) ?
10 to 100 nM

Form field - read-out: DC50; system: SMARCA4-HiBiT (Homo sapiens); submitted item: O=C1CCC(N2C(=O)c3cc(F)c(N4CCC(CN5C[C@@H]6[C@H](C5)[C@H]6CN5CCN6c7cc(-c8ccccc8O)nnc7NC[C@H]6C5)CC4)cc3C2=O)C(=O)N1 (stereo partly shown)
10 to 100 nM

====

Biological target: SMARCA2-HiBiT (Homo sapiens)
Construct: SMARCA2-HiBiT knock-in Hela monoclonal cell (CS302366); host or cells: HeLa monoclonal knock-in line (CRISPR HiBiT knock-in at the endogenous locus, heterozygous)
Assay: SMARCA2 HiBiT degradation assay in HeLa cells
Assay type: cell-based
Details: HeLa, 18 hours incubation, read-out: HeLa-HiBit-SM2 Dmax (%)
property-measured: Dmax

// known answers, use as guide
compound	test-target	Dmax
O=C1CCC(N2C(=O)c3ccc(N4CCC(CNC5CCC(CN6CCN7c8cc(-c9ccccc9O)nnc8NC[C@H]7C6)CC5)CC4)cc3C2=O)C(=O)N1 (stereo partly drawn) [Example 167]	SMARCA2-HiBiT (Homo sapiens)	> 85%
O=C1CCC(N2Cc3ccc(N4CCN(CC5CCN(C(=O)N6CCN7c8cc(-c9ccccc9O)nnc8NC[C@H]7C6)CC5)CC4)cc3C2=O)C(=O)N1 (stereo partly drawn) [Example 146]	SMARCA2-HiBiT (Homo sapiens)	> 85%

Requested read-out: Dmax. Entry: O=C1CCC(N2Cc3cc(C4CCN(C5CCCN(CCN6CCN7c8cc(-c9ccccc9O)nnc8NC[C@H]7C6)C5)CC4)ccc3C2=O)C(=O)N1 (stereo partly drawn) [Example 211]
> 85%

====

This listing pairs compounds with measured DC50.
Molecular target: SMARCA2-HiBiT (Homo sapiens, UniProt P51531)
Construct: SMARCA2-HiBiT knock-in Hela monoclonal cell (CS302366); host or cells: HeLa monoclonal knock-in line (CRISPR HiBiT knock-in at the endogenous locus, heterozygous)
Sequence (P51531 whole entry): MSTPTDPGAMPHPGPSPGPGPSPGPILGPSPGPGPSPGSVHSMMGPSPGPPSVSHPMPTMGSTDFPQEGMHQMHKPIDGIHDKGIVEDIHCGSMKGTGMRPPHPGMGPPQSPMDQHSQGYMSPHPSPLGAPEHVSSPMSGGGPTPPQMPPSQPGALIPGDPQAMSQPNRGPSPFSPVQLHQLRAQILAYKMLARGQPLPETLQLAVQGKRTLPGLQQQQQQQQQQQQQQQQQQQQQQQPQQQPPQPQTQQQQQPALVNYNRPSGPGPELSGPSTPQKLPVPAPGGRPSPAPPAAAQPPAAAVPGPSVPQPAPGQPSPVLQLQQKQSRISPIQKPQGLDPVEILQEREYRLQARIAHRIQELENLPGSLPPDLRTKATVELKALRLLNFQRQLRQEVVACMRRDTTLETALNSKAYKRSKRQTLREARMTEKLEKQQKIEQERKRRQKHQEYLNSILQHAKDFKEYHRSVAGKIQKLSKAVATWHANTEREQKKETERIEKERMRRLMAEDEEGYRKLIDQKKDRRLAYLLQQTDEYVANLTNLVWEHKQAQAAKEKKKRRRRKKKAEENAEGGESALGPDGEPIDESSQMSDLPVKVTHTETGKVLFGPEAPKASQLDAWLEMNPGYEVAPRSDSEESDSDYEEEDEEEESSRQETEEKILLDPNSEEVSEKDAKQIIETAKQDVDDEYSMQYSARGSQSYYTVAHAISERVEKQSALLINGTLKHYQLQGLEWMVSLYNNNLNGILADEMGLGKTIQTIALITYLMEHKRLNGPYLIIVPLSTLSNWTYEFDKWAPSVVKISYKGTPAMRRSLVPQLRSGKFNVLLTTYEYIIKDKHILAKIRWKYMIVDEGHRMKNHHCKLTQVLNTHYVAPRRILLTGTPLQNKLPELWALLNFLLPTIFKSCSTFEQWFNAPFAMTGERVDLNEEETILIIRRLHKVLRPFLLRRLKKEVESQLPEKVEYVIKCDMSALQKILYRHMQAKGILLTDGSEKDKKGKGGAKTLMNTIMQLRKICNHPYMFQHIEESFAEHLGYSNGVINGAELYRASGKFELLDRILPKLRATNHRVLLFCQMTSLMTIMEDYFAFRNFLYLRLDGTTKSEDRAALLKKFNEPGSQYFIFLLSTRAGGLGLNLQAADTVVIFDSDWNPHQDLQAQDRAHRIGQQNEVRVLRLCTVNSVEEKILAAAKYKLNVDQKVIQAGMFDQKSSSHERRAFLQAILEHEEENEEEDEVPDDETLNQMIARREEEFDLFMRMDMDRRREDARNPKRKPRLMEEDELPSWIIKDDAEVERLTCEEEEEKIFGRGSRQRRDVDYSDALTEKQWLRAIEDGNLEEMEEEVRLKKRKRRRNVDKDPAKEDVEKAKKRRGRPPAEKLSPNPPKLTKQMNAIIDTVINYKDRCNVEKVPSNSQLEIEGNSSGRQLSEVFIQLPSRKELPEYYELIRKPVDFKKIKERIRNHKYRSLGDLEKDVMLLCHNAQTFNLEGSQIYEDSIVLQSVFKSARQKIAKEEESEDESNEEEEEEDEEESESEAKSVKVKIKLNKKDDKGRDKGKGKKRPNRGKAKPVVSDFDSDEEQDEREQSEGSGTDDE
Test: SMARCA2 HiBiT degradation assay in HeLa cells
Assay type: cell-based
Conditions: 18 hours incubation, read-out: HeLa_HiBit-SM2 DC50

compound	DC50
O=C1CCC(N2C(=O)c3ccc(N4C[C@@H]5CN(C6CCC(C(=O)N7CCN8c9cc(-c%10ccccc%10O)nnc9NC[C@H]8C7)CC6)C[C@H]5C4)cc3C2=O)C(=O)N1 (stereo partly shown)	< 10 nM
COC1(CN2C[C@@H]3[C@@H](CN4CCN5c6cc(-c7ccccc7O)nnc6NC[C@H]5C4)[C@@H]3C2)CCN(c2ccc3c(c2)C(=O)N(C2CCC(=O)NC2=O)C3)CC1 (stereo partly shown)	< 10 nM
N#CC1(CN2CCN3c4cc(-c5ccccc5O)nnc4NC[C@H]3C2)CCN(CC2CCN(c3ccc4c(c3)C(=O)N(C3CCC(=O)NC3=O)C4=O)CC2)CC1 (stereo partly shown)	< 10 nM
O=C1CCC(N2C(=O)c3ccc(N4CCC(CN5CCC(CN6CCN7c8cc(-c9ccccc9O)nnc8NC[C@H]7C6)CC5)C(F)(F)C4)cc3C2=O)C(=O)N1 (stereo partly shown)	< 10 nM
C[C@@H]1CN(CC2CCN(c3ccc4c(c3)C(=O)N(C3CCC(=O)NC3=O)C4)CC2)CCN1C(=O)N1CCN2c3cc(-c4ccccc4O)nnc3NC[C@H]2C1 (stereo partly shown)	< 10 nM
O=C1CCC(N2C(=O)c3ccc(Oc4ccc(N5CCC(N6CCN7c8cc(-c9ccccc9O)nnc8NC[C@H]7C6)CC5)cc4)cc3C2=O)C(=O)N1 (stereo partly shown)	< 10 nM
O=C1CCC(N2C(=O)c3ccc(N4CCC(CN5CCO[C@H](CN6CCN7c8cc(-c9ccccc9O)nnc8NC[C@H]7C6)C5)CC4)cc3C2=O)C(=O)N1 (stereo partly shown)	< 10 nM
CC1CN(CC2CCN(c3cc4c(cc3F)C(=O)N(C3CCC(=O)NC3=O)C4=O)CC2)CCC1CN1CCN2c3cc(-c4ccccc4O)nnc3NC[C@H]2C1 (stereo partly shown)	< 10 nM

Given C[C@H]1CN2c3cc(-c4ccccc4O)nnc3NC[C@H]2CN1C[C@H]1[C@@H]2CN(CC3CCN(c4ccc5c(c4)C(=O)N(C4CCC(=O)NC4=O)C5=O)C[C@@H]3F)C[C@@H]21 (stereo in doubt) , state its recorded DC50.
< 10 nM

For O=C1CCC(N2C(=O)c3ccc(N4CCC(CN5CCC(O)(CN6CCN7c8cc(-c9ccccc9O)nnc8NC[C@H]7C6)CC5)CC4)cc3C2=O)C(=O)N1 (stereo partly shown) , what is its reported DC50?
< 10 nM
